# System: HeLa
# Measurement description: Antiproliferative activity against human HeLa cells assessed as reduction in cell proliferation at 150 uM incubated for 24 to 72 hrs by haemocytometry
# Format: cell-based
Reported endpoint: Activity

Cc1ncsc1-c1ccc(CNC(=O)[C@@H]2C[C@@H](O)CN2C(=O)[C@@H](NC(=O)C2(F)CC2)C(C)(C)C)cc1	Toxic
Cc1ncsc1-c1ccc(CNC(=O)[C@@H]2C[C@H](O)CN2C(=O)[C@@H](NC(=O)C2(F)CC2)C(C)(C)C)cc1	Toxic
Cc1ncsc1-c1ccc(CNC(=O)[C@@H]2C[C@@H](O)CN2C(=O)[C@@H](NC(=O)C2(C#N)CC2)C(C)(C)C)cc1	Non-Toxic
Cc1ncsc1-c1ccc(CNC(=O)[C@@H]2C[C@H](O)CN2C(=O)[C@@H](NC(=O)C2(C#N)CC2)C(C)(C)C)cc1	Non-Toxic
